target: Recombinant SARS-CoV-2 3CL Protease (Severe acute respiratory syndrome coronavirus 2 (2019-nCoV) (SARS-CoV-2)); experiment: biochemical; type: biochemical; conditions: 50% SARS-CoV-2 3CL protease inhibitory concentration; read-out: IC50

>  <molecule>
Cc1cncc(-n2c(=O)c(Cc3cc(F)c(F)c(F)c3)c(N3CCC4(C3)NC(=O)NC4=O)n(CC#N)c2=O)c1 (racemic)

>  <IC50>
10 to 100 nM

$$$$
>  <molecule>
N#CCn1c(N2CCC(F)(F)C2)c(-c2ccc(F)c(Cl)c2)c(=O)n(-c2cncc(Cl)c2)c1=O

>  <IC50>
< 10 nM

$$$$
>  <molecule>
N#CCn1c(N2CC3(CCOC3)C2)c(Cc2cc(F)c(F)c(F)c2)c(=O)n(-c2nsc3ccccc23)c1=O

>  <IC50>
> 100 nM

$$$$
>  <molecule>
Cc1cncc(-n2c(=O)c(Cc3cc(F)c(F)c(F)c3)c(-c3ccc(C)c(C)c3)n(C3(C#N)CC3)c2=O)c1

>  <IC50>
10 to 100 nM

$$$$
>  <molecule>
N#CCn1c(N2CC(F)(C3CC3)C2)c(-c2ccc(F)c(Cl)c2)c(=O)n(-c2cnc3cc(F)ccn23)c1=O

>  <IC50>
< 10 nM

$$$$
>  <molecule>
Cc1cncc(-n2c(=O)c(Cc3cc(F)c(F)c(F)c3)c(N3CCC(S(N)(=O)=O)C3)n(CC#N)c2=O)c1 (racemic)

>  <IC50>
< 10 nM

$$$$
>  <molecule>
Cc1cncc(-n2c(=O)c(-c3ccc(F)c(Cl)c3)c(N3CCC(F)(F)CC3)n(CC#N)c2=O)n1

>  <IC50>
< 10 nM

$$$$
